The origin of these recorded values is patent US20160257697A1.

# System: HCV replicon 1AY93H
# assayDetails: microbe, parasite or virus in culture
# Format: cell-based, Hepatitis C virus (HCV)
# studyConditions: read-out: 1A Y93H IC50; HCV replicon 1A Y93H; Replicon Assay A
parameter: pIC50
Kindly note that pIC50 refers to -log10 of the concentration in mol/L and answer with the value alone.

Returns the measured pIC50 for the input compound. Input: COC(=O)N[C@H](C(=O)N1C2CC2C[C@H]1c1ncc(-c2cc(F)c3c(c2)OC(c2ccc(C4CC4)s2)n2c-3cc3cc(-c4cnc([C@@H]5CCCN5C(=O)[C@@H](NC(=O)OC)C5C[C@@H](C)O[C@@H](C)C5)[nH]4)ccc32)[nH]1)C(C)C (single isomer, unassigned) [Compound 556]
9.60

Can you look up the measured pIC50 of COC(=O)N[C@H](C(=O)N1CCC[C@H]1c1ncc(-c2cc(F)c3c(c2)OC(c2ccc(CC(C)C)s2)n2c-3cc3cc(-c4cnc([C@@H]5CCCN5C(=O)[C@@H](NC(=O)OC)C(C)C)[nH]4)ccc32)[nH]1)C(C)C (single isomer, unassigned) [Compound 520] for me?
10.08

###

Could you please report measured pIC50 for the items listed next?
# Tested on: HCV replicon 2B
# assayDetails: microbe, parasite or virus in culture
# Format: cell-based, Hepatitis C virus (HCV)
# studyConditions: read-out: 2B IC50; HCV replicon 2B; Replicon Assay A
Here pIC50 is given on a logarithmic scale as minus log10 of the concentration in mol/L.

Could you share which pIC50 value was measured for COC(=O)N[C@H](C(=O)N1CCC[C@H]1c1ncc(-c2cc(C)c3c(c2)OC(c2ccc(C4CC4)s2)n2c-3cc3cc(-c4cnc([C@@H]5C[C@H]6C[C@H]6N5C(=O)[C@@H](NC(=O)OC)C(C)C)[nH]4)ccc32)[nH]1)C(C)C (single isomer, unassigned) [Compound 756] ?
9.22

Which pIC50 value belongs to COC(=O)NC(C(=O)N1CCC[C@H]1c1ncc(-c2ccc3c(c2)cc2n3C(c3cc4c(s3)CCC4)Oc3cc(-c4cnc([C@@H]5CCCN5C(=O)[C@@H](NC(=O)OC)C(C)C)[nH]4)cc(C)c3-2)[nH]1)C1CCOC(C)(C)C1 (single isomer, unassigned) [Compound 852] ?
10.24

Please report the recorded pIC50 for COC(=O)N[C@H](C(=O)N1C[C@H](F)C[C@H]1c1cnc(-c2ccc3c(c2)cc2n3C(c3cc4ccccc4s3)Oc3cc(-c4cnc([C@@H]5C[C@@H](F)CN5C(=O)[C@@H](NC(=O)OC)C(C)C)[nH]4)ccc3-2)[nH]1)C(C)C (single isomer, unassigned) .
7.37

// pIC50 lookup, key: COC(=O)N[C@H](C(=O)N1CCC[C@H]1c1cnc(-c2ccc3c(c2)cc2n3C(c3cc4ccccc4s3)Oc3cc(-c4cnc([C@@H]5CCCN5C(=O)[C@@H](NC(=O)OC)C5CCOCC5)[nH]4)ccc3-2)[nH]1)C1CCOCC1 (single isomer, unassigned) [Compound 810]
11.30

###

# Tested on: HCV replicon 1AQ30D
# assayDetails: microbe, parasite or virus in culture
# Type: cell-based, Hepatitis C virus (HCV)
# studyConditions: Hepatitis C virus, read-out: 1A Q30D IC50 (nM), replicon 1AQ30D; Replicon Assay B
I'd be grateful if you could share measured IC50 for these entries.

What value of measured IC50 is listed for CCc1ccc(C2Oc3cc(-c4cnc([C@@H]5CCCN5C(=O)[C@@H](NC(=O)OC)C(C)C)[nH]4)cc(F)c3-c3cc4cc(-c5cnc([C@@H]6CCCN6C(=O)[C@H](NC(=O)OC)C6COCC(C)(C)C6)[nH]5)ccc4n32)s1 (stereo partly shown) ?
0.094 nM

Param item = COC(=O)NC(C(=O)N1[C@@H]2C[C@@H]2C[C@H]1c1ncc(-c2ccc3c(c2)cc2n3C(c3ccc(C4CC4)s3)Oc3cc(-c4cnc([C@@H]5CCCN5C(=O)[C@@H](NC(=O)OC)C(C)C)[nH]4)cc(F)c3-2)[nH]1)C1CCOC(C)(C)C1 (single isomer, unassigned) [Compound 276] ; retrieve measured IC50.
0.018 nM

Requested field: IC50. Item: COC(=O)N[C@H](C(=O)N1CCC[C@H]1c1ncc(-c2ccc3c(c2)OC(c2ccc(C4CC4)s2)n2c-3cc3cc(-c4cnc([C@@H]5CCCN5C(=O)[C@@H](NC(=O)OC)C(C)C)[nH]4)ccc32)[nH]1)C(C)C (stereo partly shown)
0.1 nM

Requested field: IC50. Item: COC(=O)N[C@H](C(=O)N1CCC[C@H]1c1ncc(-c2cc(F)c3c(c2)OC(c2ccc(CC(F)(F)F)s2)n2c-3cc3cc(-c4cnc([C@@H]5CCCN5C(=O)[C@@H](NC(=O)OC)C(C)C)[nH]4)ccc32)[nH]1)C(C)C (stereo partly shown)
0.29 nM

###

# Tested on: HCV replicon 1AQ30D
# assayDetails: microbe, parasite or virus in culture
# Format: cell-based, Hepatitis C virus (HCV)
# studyConditions: Hepatitis C virus, read-out: 1A Q30D IC50 (nM), replicon 1AQ30D; Replicon Assay B
# label = 1.0 if IC50 < 0.4 nM else 0.0

IC50 under 0.4 nM? Item: CCc1ccc(C2Oc3cc(-c4cnc([C@@H]5CCCN5C(=O)[C@@H](NC(=O)OC)C(C)C)[nH]4)cc(F)c3-c3cc4cc(-c5cnc([C@@H]6CCCN6C(=O)[C@@H](NC(=O)OC)C(C)C)[nH]5)ccc4n32)s1 (stereo partly drawn) [Compound 4]
1.0

Criterion: IC50 strictly below 0.4 nM. Is it met by COC(=O)N[C@H](C(=O)N1CCC[C@H]1c1ncc(-c2cc(F)c3c(c2)OC(c2cc4c(s2)CCC(C)(C)O4)n2c-3cc3cc(-c4cnc([C@@H]5CCCN5C(=O)[C@@H](NC(=O)OC)C(C)C)[nH]4)ccc32)[nH]1)C(C)C (single isomer, unassigned) ?
1.0

Lab log: compare recorded IC50 with 0.4 nM; is it strictly lower for COC(=O)N[C@H](C(=O)N1CCC[C@H]1c1ncc(-c2cc(F)c3c(c2)OC(c2ccc(OC)s2)n2c-3cc3cc(-c4cnc([C@@H]5CCCN5C(=O)[C@@H](NC(=O)OC)C(C)C)[nH]4)ccc32)[nH]1)C(C)C (single isomer, unassigned) ?
1.0

Identify whether the molecule COC(=O)NC(C(=O)N1CCC[C@H]1c1ncc(-c2ccc3c(c2)cc2n3C(c3cc(C)c(C)s3)Oc3cc(-c4cnc([C@@H]5CCCN5C(=O)[C@@H](NC(=O)OC)C(C)C)[nH]4)cc(F)c3-2)[nH]1)C(C)(C)F (single isomer, unassigned) records IC50 below 0.4 nM.
0.0

Dear reviewer, please state whether COC(=O)NC(C(=O)N1CCC[C@H]1c1ncc(-c2ccc3c(c2)cc2n3C(c3ccc(C4CC4)s3)Oc3cc(-c4cnc([C@@H]5CCCN5C(=O)[C@@H](NC(=O)OC)C(C)C)[nH]4)cc(F)c3-2)[nH]1)C1CN(C(=O)OC)C1 (single isomer, unassigned) has IC50 strictly beneath 0.4 nM.
1.0

Please indicate whether the reported IC50 of COC(=O)NC(C(=O)N1CCC[C@H]1c1ncc(-c2cc(F)c3c(c2)OC(c2ccc(C4CC4)s2)n2c-3cc3cc(-c4cnc([C@@H]5CCCN5C(=O)[C@@H](NC(=O)OC)C(C)C)[nH]4)ccc32)[nH]1)C1C[C@@H](C)O[C@@H](C)C1 (single isomer, unassigned) [Compound 186] is strictly below 0.4 nM.
0.0

API: query returns whether the molecule falls strictly under 0.4 nM in IC50. Query: CCc1ccc(C2Oc3cc(-c4cnc([C@@H]5CCCN5C(=O)[C@@H](NC(=O)OC)C(C)C)[nH]4)cc(F)c3-c3cc4cc(-c5cnc([C@@H]6CCCN6C(=O)[C@H](NC(=O)OC)C6CCOC(C)(C)C6)[nH]5)ccc4n32)s1 (stereo partly drawn)
1.0

Threshold test, IC50 < 0.4 nM: CCc1ccc(C2Oc3cc(-c4cnc([C@@H]5CCCN5C(=O)C(NC(=O)OC)C5C[C@@H](C)O[C@@H](C)C5)[nH]4)cc(F)c3-c3cc4cc(-c5cnc([C@@H]6CCCN6C(=O)C(NC(=O)OC)C6C[C@@H](C)O[C@@H](C)C6)[nH]5)ccc4n32)s1 (single isomer, unassigned)
1.0

Answer whether the molecule COC(=O)N[C@H](C(=O)N1CCC[C@H]1c1ncc(-c2cc(F)c3c(c2)OC(c2ccc(C4CC4)s2)n2c-3cc3cc(-c4cnc([C@@H]5CCCN5C(=O)[C@@H](NC(=O)OC)C5C[C@@H](C)O[C@@H](C)C5)[nH]4)ccc32)[nH]1)C1C[C@@H](C)O[C@@H](C)C1 (stereo partly drawn) has IC50 strictly less than 0.4 nM
1.0

###

# System: HCV replicon 1AQ30D
# assayDetails: microbe, parasite or virus in culture
# Format: cell-based, Hepatitis C virus (HCV)
# studyConditions: Hepatitis C virus, read-out: 1A Q30D IC50 (nM), replicon 1AQ30D; Replicon Assay B
parameter: IC50 (nM)
# value in nM; strip the unit string

# query: IC50 of entry COC(=O)N[C@H](C(=O)N1CCC[C@H]1c1ncc(-c2cc(F)c3c(c2)OC(c2cc4nccnc4s2)n2c-3cc3cc(-c4cnc([C@@H]5CCCN5C(=O)[C@@H](NC(=O)OC)C(C)C)[nH]4)ccc32)[nH]1)C(C)C (single isomer, unassigned)
0.54

Need IC50 of COC(=O)N[C@H](C(=O)N1CCC[C@H]1c1nc(-c2cc(F)c3c(c2)OC(c2ccc(C4CC4)s2)n2c-3cc3cc(-c4cnc([C@@H]5CCCN5C(=O)[C@@H](NC(=O)OC)C5C[C@@H](C)O[C@@H](C)C5)[nH]4)ccc32)c[nH]1)C(C)C (stereo partly shown) , thanks.
0.013

Which IC50 value is on record for COC(=O)N[C@H](C(=O)N1CCC[C@H]1c1ncc(-c2ccc3c(c2)OC(c2ccc(C4CC4)s2)n2c-3cc3cc(-c4cnc([C@@H]5CCCN5C(=O)[C@@H](NC(=O)OC)C5CCOCC5)[nH]4)ccc32)[nH]1)C(C)C (single isomer, unassigned) ?
0.0639

Given COC(=O)N[C@H](C(=O)N1CCC[C@H]1c1ncc(-c2cc(F)c3c(c2)OC(c2ccc(C(C)C)s2)n2c-3cc3cc(-c4cnc([C@@H]5CCCN5C(=O)[C@@H](NC(=O)OC)C(C)C)[nH]4)ccc32)[nH]1)C(C)C (single isomer, unassigned) , state its recorded IC50.
11.5
